# TGT: MSK2(h) (Homo sapiens, UniProt O75676)
# Construct: purchased Caliper Life Sciences
# Sequence (O75676 whole entry): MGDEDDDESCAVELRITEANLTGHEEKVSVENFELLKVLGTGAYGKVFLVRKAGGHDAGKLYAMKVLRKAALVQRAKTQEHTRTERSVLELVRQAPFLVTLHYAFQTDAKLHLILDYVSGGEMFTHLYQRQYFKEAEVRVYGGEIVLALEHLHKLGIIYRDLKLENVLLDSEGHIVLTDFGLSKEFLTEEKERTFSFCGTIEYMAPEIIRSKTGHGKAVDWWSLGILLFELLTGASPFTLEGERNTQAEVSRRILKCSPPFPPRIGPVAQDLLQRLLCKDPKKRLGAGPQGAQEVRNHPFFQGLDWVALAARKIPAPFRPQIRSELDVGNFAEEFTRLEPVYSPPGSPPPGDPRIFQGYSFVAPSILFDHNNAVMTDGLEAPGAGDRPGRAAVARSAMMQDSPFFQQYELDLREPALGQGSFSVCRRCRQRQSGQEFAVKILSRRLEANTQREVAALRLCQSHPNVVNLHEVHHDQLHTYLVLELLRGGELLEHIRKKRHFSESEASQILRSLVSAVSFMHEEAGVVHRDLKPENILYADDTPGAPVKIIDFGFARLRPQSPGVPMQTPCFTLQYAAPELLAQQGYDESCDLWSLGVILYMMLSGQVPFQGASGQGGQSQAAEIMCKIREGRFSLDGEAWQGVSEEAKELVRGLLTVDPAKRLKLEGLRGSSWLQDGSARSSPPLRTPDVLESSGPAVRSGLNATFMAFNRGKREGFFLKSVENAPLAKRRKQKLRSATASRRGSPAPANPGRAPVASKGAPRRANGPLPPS
# ASSAY_TEXT: Other kinases, single-concentration inhibition (Table 3)
# Format: biochemical
# EXPERIMENTAL_CONTEXT: 1 μM
ENDPOINT_NAME: % inhibition MSK2(h) (%)
One number for each entry, in %.

Answer for every listed entry: what is its % inhibition MSK2(h)? The entries follow.
1. CC[C@@H]1C[C@@H]2CCCOc3cccc(c3)Nc3ncc(F)c(n3)N[C@H]2[C@H]1C(N)=O (single isomer, unassigned)
2. NC(=O)[C@H]1[C@H]2C[C@H]3[C@H]1Nc1nc(ncc1F)Nc1cccc(c1)CSS[C@@H]3C2
3. N#Cc1ccc2cc1NC(=O)CS[C@@H]1C[C@@H]3C[C@H]1[C@@H](Nc1nc(ncc1F)N2)[C@H]3C(N)=O
4. NC(=O)[C@H]1[C@H]2C[C@H]3[C@H]1Nc1nc(ncc1F)Nc1cccc(c1)C(=O)CS[C@@H]3C2

-- reply
1. 56
2. 3
3. 2
4. 89
